molecular target: hGLP-1R (Homo sapiens, UniProt P43220); test: Functional cAMP activity in the presence of 1% HSA; assay type: cell-based; details: read-out: cAMP Rel EC50, hGLP-1R
Sequence (P43220 24-463): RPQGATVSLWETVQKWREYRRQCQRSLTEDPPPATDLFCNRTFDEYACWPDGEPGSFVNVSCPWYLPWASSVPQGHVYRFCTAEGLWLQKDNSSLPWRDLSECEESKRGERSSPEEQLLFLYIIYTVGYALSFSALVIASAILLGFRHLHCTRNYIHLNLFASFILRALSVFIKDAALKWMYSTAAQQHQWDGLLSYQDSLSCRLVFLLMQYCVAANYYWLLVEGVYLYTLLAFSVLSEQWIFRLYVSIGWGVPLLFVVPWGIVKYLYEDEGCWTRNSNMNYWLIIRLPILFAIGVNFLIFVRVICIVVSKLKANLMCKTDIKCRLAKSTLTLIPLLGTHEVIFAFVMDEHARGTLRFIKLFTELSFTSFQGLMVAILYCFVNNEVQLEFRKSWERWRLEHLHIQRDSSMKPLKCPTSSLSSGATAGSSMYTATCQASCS
Starred links: 1 amine or outer side, 2 acyl side, 3 side chain; linkers in the order of their positions; H or OH if unused. Non-standard residues stand in square brackets, D forms with d. Groups on a side chain read outwards from the residue. No end group written: not given here. *: point of attachment. C20 diacid = O=C(O)CCCCCCCCCCCCCCCCCCC(=O)*; C18 diacid = O=C(O)CCCCCCCCCCCCCCCCC(=O)*; αMePhe(2-F) = C[C@](N)(Cc1ccccc1F)C(=O)O; γGlu = O=C(O)[C@H](CCC(=O)[*:2])N[*:1]; αMe4Pal = C[C@](N)(Cc1ccncc1)C(=O)O; αMeY = C[C@](N)(Cc1ccc(O)cc1)C(=O)O; 4Pal = N[C@@H](Cc1ccncc1)C(=O)O; αMeL = CC(C)C[C@](C)(N)C(=O)O; αMeS = C[C@](N)(CO)C(=O)O; Orn = NCCC[C@H](N)C(=O)O; AEEA = NCCOCCOCC(=O)O; Aib = CC(C)(N)C(=O)O
Reported EC50 maps to class as: low class = under 200 nM, middle class = from 200 nM up to 400 nM, high class = 400 nM and over

Pick a category. Item: H-Y[Aib]QGTFTSDYSI[αMeL]LDKQAAK([AEEA-AEEA-γGlu-C20 diacid])QFVEWLIA[Aib]GPSSGEPPPGSG-NH2 [Example 335]
low class

Pick a category. Item: H-Y[Aib]QGTFTSDFS[Orn][αMeL]LDKK([AEEA-γGlu-C18 diacid])AQ[αMe4Pal]AFIEYLIE[Aib]GESSGAPPPSGS-NH2 [Example 229]
middle class

Pick a category. Item: H-Y[Aib]QGTFTSDFSK[αMeL]LDKK([AEEA-γGlu-C20 diacid])AQ[Aib]AFIEYLLAGGPSSGEPPPSSG-NH2 [Example 7]
high class

Pick a category. Item: H-Y[Aib]QGTFTSDFSK[αMeL]LDKK([AEEA-γGlu-C20 diacid])AQ[Aib]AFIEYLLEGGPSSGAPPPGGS-NH2 [Example 18]
high class

Pick a category. Item: H-Y[Aib]QGTFTSD[4Pal]SQ[αMeL]LDKK([Glu-γGlu-Glu-C18 diacid])AQ[αMe4Pal]AFIEYLIE[Aib]GPSSGAPPPSGS-NH2 [Example 896]
high class

Pick a category. Item: H-Y[Aib]QGTFTSDFS[Orn][αMeL]LDKK([AEEA-γGlu-C18 diacid])AQ[Aib]AFIEWLLEGGHSSGAPPPSGS-NH2 [Example 170]
middle class

Continuing:
Pick a category. Item: Y[Aib]QGTFTSD[4Pal]SR[αMeL]LDKK([AEEA-γGlu-C18 diacid])AQ[αMe4Pal]AFIE[αMe4Pal]LIEGGPSSGAPPPSGS-NH2 [Example 950]
middle class

Pick a category. Item: H-Y[Aib]QGT[αMePhe(2-F)]TSD[4Pal]SI[αMeL]LD[Orn]K([AEEA-γGlu-C18 diacid])AQ[αMe4Pal][Orn]FI[dE][αMeY]LIEGGPSSGAPPPESE-NH2 [Example 755]
low class

Pick a category. Item: H-Y[Aib]QGTFTSDFSK[αMeL]LDKK([AEEA-γGlu-C18 diacid])AQ[Aib]AFIEYLLE[Aib]GPSSGAPPPSEG-NH2 [Example 57]
low class

Pick a category. Item: H-Y[Aib]QGTFTSDFSK[αMeL]LDKK([AEEA-γGlu-C20 diacid])AQ[Aib]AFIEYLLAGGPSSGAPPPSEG-NH2 [Example 10]
middle class

Pick a category. Item: H-Y[Aib]QGT[αMePhe(2-F)]TSDYSILLDKIAAK([AEEA-γGlu-C20 diacid])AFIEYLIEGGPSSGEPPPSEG-NH2 [Example 296]
low class

Pick a category. Item: H-Y[Aib]QGT[αMePhe(2-F)]TSD[4Pal][αMeS]I[αMeL]LD[Orn]K([γGlu-γGlu-C18 diacid])AQ[αMe4Pal]EFI[dE][αMeY]LIEGGPSSGAPPPSGSE-NH2 [Example 717]
low class
